Measured values drawn from paper PMC3184957 for this set.

# Assayed Target: CaMKIIα (Rattus norvegicus, UniProt P11275)
# Construct: made in house; host or cells: baculovirus/Sf9 (CaMKII); bacteria (CaM)
# Assay Name: CaMKII activity assay, phosphorylation of syntide 2
# Assay type: biochemical
# Protocol: CaM and CaMKII was purified after bacterial or baculovirus/Sf9 cell expression as described, [47]. Other kinases were purchased (PKA and PKC from PhosphoSolutions; others from SignalChem). […] All CN peptides were N-terminally acetylated and C-terminally amidated, except for the peptides used for the initial Ala scan. […] After extensive washes in water, phosphorylation of the substrate peptide bound to the P81 paper was measured by the Cherenkov method.
pIC50: −log10 of the molar value.
Property Label: pIC50

Give CaMKIIα (Rattus norvegicus, UniProt P11275) pIC50 for Ac-KRPPKLGQIGRSKRVVIEDDR-NH2 [CN21, reference compound]
~7.00

----------
# Assayed Target: CaMKIIα (Rattus norvegicus, UniProt P11275)
# Construct: made in house; host or cells: baculovirus/Sf9 (CaMKII); bacteria (CaM)
# Assay Name: CaMKII activity assay, phosphorylation of syntide 2
# Assay type: biochemical
# Measurement Setup: CaMKII reduced to 0.1 nM, 10 min reaction; IC50 dependent on CaMKII concentration (tight binding inhibitor); read-out: IC50 for CaMKII inhibition by CN19o (Fig. 7A)
pIC50: −log10 of the molar value.
Property Label: pIC50

What value of pIC50 has been reported for the following substance? Ac-KRAPKLGQIGRQKAVDIED-NH2 [CN19o]
> 9.40
